Protocol notes: CREB reporter modulators without forskolin, primary screen, cell-based, PC12, CRE-LacZ reporter, unstimulated (AID 1145)
Test conditions: no forskolin, luminescence, 4.5 h, higher = more signal, called active from +8 up or from −8 down
Entry flag: 1 (yes) if z-score reaches -0.2; 0 (no) if it does not.

Kindly determine if z-score recorded for C#CCCCON=C1C[C@@H](O)[C@@H](O)[C@@H]2[C@@H]3C(=O)N(C4CCCCC4)C(=O)[C@@H]3CC[C@@H]12 is above or exactly -0.2. 1 (yes)

Reported z-score at or above -0.2? O=C(NCCC[N+]1=CC=NC1c1ccccc1)N1CCCc2nc(-c3ccc(Br)cc3)ccc21 (stereo not drawn) 0 (no)

Evaluate CC1(C)O[C@H]2OC([C@H](O)CON3C(=O)c4ccccc4C3=O)[C@H](O)[C@H]2O1 (stereo partly drawn) : z-score at minimum -0.2? 1 (yes)

// inclusive: z-score at least -0.2? input: CC(=O)OC[C@H]1O[C@H](CC=NOC(C)CN2CCCCc3nc(C)c(C)cc32)C=C[C@@H]1OC(C)=O (stereo partly drawn) 1 (yes)

Does the compound CCN1C(=O)[C@H]2[C@H]3[C@H](O)[C@H](O)CC(=NO[C@H](C)c4cn([C@@H]5COC[C@H]5O)nn4)[C@@H]3CC[C@H]2C1=O have recorded z-score that is -0.2 or more? 1 (yes)
